Target: Prostaglandin G/H synthase 1 (Homo sapiens, UniProt P23219)
Sequence (P23219 whole entry): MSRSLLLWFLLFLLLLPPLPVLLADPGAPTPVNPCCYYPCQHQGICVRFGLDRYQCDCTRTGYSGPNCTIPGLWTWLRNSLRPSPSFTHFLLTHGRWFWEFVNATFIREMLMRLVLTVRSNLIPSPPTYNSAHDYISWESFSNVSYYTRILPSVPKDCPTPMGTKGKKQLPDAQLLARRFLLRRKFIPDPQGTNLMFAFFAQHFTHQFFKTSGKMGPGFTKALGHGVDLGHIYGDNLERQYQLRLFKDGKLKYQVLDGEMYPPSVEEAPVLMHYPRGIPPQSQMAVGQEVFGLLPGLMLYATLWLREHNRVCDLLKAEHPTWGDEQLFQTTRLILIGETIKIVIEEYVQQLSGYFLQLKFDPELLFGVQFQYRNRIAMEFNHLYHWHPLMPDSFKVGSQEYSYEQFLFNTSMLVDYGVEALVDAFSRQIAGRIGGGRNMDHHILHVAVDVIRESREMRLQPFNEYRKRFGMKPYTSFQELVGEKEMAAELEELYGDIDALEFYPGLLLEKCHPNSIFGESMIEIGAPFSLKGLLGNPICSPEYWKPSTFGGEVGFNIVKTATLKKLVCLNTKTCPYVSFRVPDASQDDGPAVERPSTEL
Test: Inhibition of COX1 in human whole blood assessed as effect on A23187-induced thromboxane B2 production at 100 uM relative to control; values are per cent of control
measure-name: residual activity

molecule	endpoint-result
COc1ccc2c(c1)c(CCOC(=O)NS(=O)(=O)NCCCO[N+](=O)[O-])c(C)n2C(=O)c1ccc(Cl)cc1	61%
COc1ccc2c(c1)c(CCN)c(C)n2C(=O)c1ccc(Cl)cc1	1%
COc1ccc2c(c1)c(CC(=O)NO)c(C)n2C(=O)c1ccc(Cl)cc1 [OXAMETACIN]	2%
COc1ccc2c(c1)c(CCNS(=O)(=O)CCCO)c(C)n2C(=O)c1ccc(Cl)cc1	6%
COc1ccc2c(c1)c(CC(=O)NCCCO[N+](=O)[O-])c(C)n2CC1CCCCC1	100%
COc1ccc2c(c1)c(CC(=O)NCCCO[N+](=O)[O-])c(C)n2C(=O)c1ccc(Cl)cc1	0%
COc1ccc2c(c1)c(CC(=O)NOCCCO)c(C)n2C(=O)c1ccc(Cl)cc1	1%
CCOC(=O)Cc1c(C)n(CC2CCCCC2)c2ccc(OC)cc12	85%
COc1ccc2c(c1)c(CCOC(=O)NS(=O)(=O)OCCCO[N+](=O)[O-])c(C)n2C(=O)c1ccc(Cl)cc1	44%

----------
Documented residual activity across a set of compounds
Target: Prostaglandin G/H synthase 2 (Homo sapiens)
Assay: Inhibition of COX2 in human whole blood assessed as effect on LPS-induced thromboxane B2 production at 30 uM relative to control; values are per cent of control

smiles-data	readout-units	residual activity
COc1ccc2c(c1)c(CCNS(=O)(=O)CCCO)c(C)n2C(=O)c1ccc(Cl)cc1	%	0
COc1ccc2c(c1)c(CC(=O)NCCCO[N+](=O)[O-])c(C)n2C(=O)c1ccc(Cl)cc1	%	1
Cc1c(CC(=O)NCCCO[N+](=O)[O-])c2cc(OS(N)(=O)=O)ccc2n1C(=O)c1ccc(Cl)cc1	%	46
Cc1c(CC(=O)NCCCO[N+](=O)[O-])c2cc(O)ccc2n1C(=O)c1ccc(Cl)cc1	%	2
COc1cc2c(CC(=O)NCCCO[N+](=O)[O-])c(C)n(C(=O)c3ccc(Cl)cc3)c2cc1Cl	%	3
COc1ccc2c(c1)c(CCNS(=O)(=O)CCCO[N+](=O)[O-])c(C)n2C(=O)c1ccc(Cl)cc1	%	7
COc1ccc2c(c1)c(CCN)c(C)n2C(=O)c1ccc(Cl)cc1	%	78
COc1ccc2c(c1)c(CC(=O)NCCCO)c(C)n2C(=O)c1ccc(Cl)cc1	%	0
Cc1c(CC(=O)NCCCO)c2cc(O)ccc2n1C(=O)c1ccc(Cl)cc1	%	4
COc1cc2c(CC(=O)O)c(C)n(C(=O)c3ccc(Cl)cc3)c2cc1Cl	%	0
Cc1c(CC(=O)O)c2cc(O)ccc2n1C(=O)c1ccc(Cl)cc1	%	0

----------
Biological target: Prostaglandin G/H synthase 1 (Homo sapiens)
Experiment: Inhibition of COX1 in human whole blood assessed as effect on A23187-induced thromboxane B2 production
Documented IC50 across a set of compounds

smiles-data	readout-units	reading-qualifier	IC50
COc1ccc2c(c1)c(CC(=O)NC(CO[N+](=O)[O-])(CO[N+](=O)[O-])CO[N+](=O)[O-])c(C)n2C(=O)c1ccc(Cl)cc1	µM	=	1.2
COc1ccc2c(c1)c(CCNS(=O)(=O)CCCO[N+](=O)[O-])c(C)n2C(=O)c1ccc(Cl)cc1	µM	=	11
Cc1c(CC(=O)NCCCO[N+](=O)[O-])c2cc(OS(N)(=O)=O)ccc2n1C(=O)c1ccc(Cl)cc1	µM	>	100
COc1cc2c(CC(=O)NCCCO[N+](=O)[O-])c(C)n(C(=O)c3ccc(Cl)cc3)c2cc1Cl	µM	=	15.9
COc1ccc2c(c1)c(CCNC(=O)NCCCO[N+](=O)[O-])c(C)n2C(=O)c1ccc(Cl)cc1	µM	=	3
COc1ccc2c(c1)c(CC(=O)NCCCCO)c(C)n2C(=O)c1ccc(Cl)cc1	µM	=	2.4
